Assay Name: Pharmacokinetic parameters in rat plasma
Format: in vivo, SD rats
Conditions: SD, iv, i.v. 2 mg/kg
Method: 4 healthy SD rats of 6-9 weeks old were selected and randomly divided into two groups, 2 rats in each group. […] Quantitative analysis of all biological samples was performed using an LC-MS/MS method, with WinNonlin™ Version 6.3 (Pharsight, Mountain View, CA) pharmacokinetic software, to calculate relevant pharmacokinetic parameters using a […] model linear logarithmic trapezoid method. […]
Measured Parameter: clearance
Report the figure along with its unit, number first.

Consider the compound shown here: C[C@@H]1CN(C(=O)[C@@H]2CN(C3CCOCC3)C[C@H]2c2ccc(F)cc2F)C[C@H](C)N1c1ccc(F)cc1 (single isomer, unassigned) What is its recorded clearance? 4.38 L/h/kg

* * *

Measurement Target: MC3R (Homo sapiens)
Construct: expressed in transfected cells
Sequence (P41968 whole entry): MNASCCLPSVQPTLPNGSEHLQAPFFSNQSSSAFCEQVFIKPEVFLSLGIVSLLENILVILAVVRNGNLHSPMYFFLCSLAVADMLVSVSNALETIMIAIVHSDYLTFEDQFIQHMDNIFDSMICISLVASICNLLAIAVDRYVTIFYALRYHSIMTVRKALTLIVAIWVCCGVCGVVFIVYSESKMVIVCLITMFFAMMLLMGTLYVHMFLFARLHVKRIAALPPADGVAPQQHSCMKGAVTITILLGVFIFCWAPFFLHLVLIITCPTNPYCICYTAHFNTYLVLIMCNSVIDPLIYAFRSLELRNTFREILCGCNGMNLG
Assay Name: In vitro activity of MCR receptors, intracellular cAMP signal (HEK293T/MCR cell line), MC3R
Format: cell-based
Conditions: cAMP, HEK293T/MCR cell line; read-out: MC3R EC50
Below, each entry is listed alongside its reported EC50.
Numeric only. Scale: nM

Examples with their reported EC50 follow.
>>> print(df.to_string())
                                   molecule  measured_parameter  recorded_number
0  C[C@@H]1CN(C(=O)C2CN(c3cccnn3)CC2c2ccc(F)cc2F)C[C@H](C)N1c1ccc(F)cc1 (single isomer, unassigned)                EC50               26
1  C[C@@H]1CN(C(=O)C2CN(C3CCOCC3)CC2c2ccc(Cl)cc2)C[C@H](C)N1c1ccc(F)cc1 (single isomer, unassigned)                EC50              254
2  C[C@@H]1CN(C(=O)C2CN(c3ccccc3)CC2c2ccc(F)cc2F)C[C@H](C)N1c1ccc(F)cc1 (single isomer, unassigned)                EC50             3300
3  C[C@@H]1CN(C(=O)C2CN(c3ccc(C#N)cn3)CC2c2ccc(F)cc2F)C[C@H](C)N1c1ccc(F)cc1 (single isomer, unassigned)                EC50                5
4  C[C@@H]1CN(C(=O)C2CN(C(C)(C)C)CC2c2ccc(F)cc2F)C[C@H](C)N1c1ccc(C(F)(F)F)cc1 (single isomer, unassigned)                EC50             3500

What value of EC50 has been recorded for this entry: C[C@@H]1CN(C(=O)C2CN(C(C)(C)C)CC2c2ccc(Cl)cc2)C[C@H](C)N1c1ccc(F)cc1 (single isomer, unassigned) 1760

* * *

Assay Name: Drug concentration in brain tissues of rats, oral gavage
Type: in vivo
Conditions: SD, plasma, rat, p.o. 20 mg/kg, 0.5 hour, read-out: Plasma drug concentration
Measured Parameter: concentration at 0.5 h (nM)
Give the value, in units of nM, as a plain number.

Data request, read-out concentration at 0.5 h, for C[C@@H]1CN(C(=O)[C@@H]2CN(C3CCOCC3)C[C@H]2c2ccc(F)cc2F)C[C@H](C)N1c1ccc(F)cc1 (single isomer, unassigned) 783

* * *

Measurement Target: MC4R (Homo sapiens, UniProt P32245)
Construct: expressed in transfected cells
Sequence (P32245 whole entry): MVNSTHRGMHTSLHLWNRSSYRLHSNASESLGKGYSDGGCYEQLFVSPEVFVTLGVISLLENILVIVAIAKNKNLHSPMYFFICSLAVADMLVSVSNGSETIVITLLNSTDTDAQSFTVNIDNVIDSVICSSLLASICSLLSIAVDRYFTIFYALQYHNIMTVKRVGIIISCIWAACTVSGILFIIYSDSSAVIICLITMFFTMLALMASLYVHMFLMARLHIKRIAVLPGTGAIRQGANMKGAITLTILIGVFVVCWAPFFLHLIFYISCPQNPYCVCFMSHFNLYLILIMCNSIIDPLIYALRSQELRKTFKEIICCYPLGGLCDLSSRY
Assay Name: In vitro activity of MCR receptors, intracellular cAMP signal (HEK293T/MCR cell line), MC4R
Type: cell-based
Experimental: Test purpose: to evaluate the agonistic effect of the compound on MCRs by detecting intracellular cAMP signal changes. Cells were resuspended with 1×PBS+500 μM IBMX. 10 μL of the cell suspension was added into a 384-well plate to be tested, and the cell concentration was adjusted to 1×10^4 cells per well for later use. […] The test plate was placed in the Envision multifunctional microplate reader for reading, with a detection wavelength of 665/615 nm.
pEC50: −log10 of the molar value.
Returns t if the recorded pEC50 is greater than or equal to 8, and f otherwise.

Consider the worked cases shown below.
In [3]: df
Out[3]:
                                   compound  classification
0  C[C@@H]1CN(C(=O)[C@@H]2CN(C(C)(C)C)C[C@H]2c2ccc(F)cc2F)C[C@H](C)N1c1ccccn1               f
1  C[C@@H]1CN(C(=O)C2CN(c3ccc(C#N)cn3)CC2c2ccc(F)cc2F)C[C@H](C)N1c1ccc(F)cc1 (single isomer, unassigned)               t
2  C[C@@H]1CN(C(=O)C2CN(C(C)(C)C)CC2c2ccc(F)cc2F)C[C@H](C)N1c1ccc(F)cc1 (single isomer, unassigned)               f

Attention now turns to another entry.
Is pEC50 at least 8? Consider C[C@@H]1CN(C(=O)C2CN(C(C)(C)C)CC2c2ccc(F)cc2F)C[C@H](C)N1c1ccc(C(F)(F)F)cc1 (single isomer, unassigned) f
